Molecular target: T1, AAV9 (adeno-associated virus 9)
T1 construct: also called adeno-associated virus serotype 9
Assay: SPR, AAV amine-coupled to CM5 chip;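 note: nanobodies flowed as analyte at seven concentrations spanning 1–100 nM over immobilized AAV (500–800 RU), kinetic constants derived by fitting the binding curves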
Listed next: entries and their corresponding koff.
Measurement label: koff (s⁻¹)

{"Binder": "A4-075 (VHH) VHH: VQLQESGGGLVQSGGSLRLSCAASGSMFSLNTMGWYRQAPGKQRELVATITRGGGTNYADSVKGRFTISRDNAKNTVYLQMNSLRPEDTAVYYCHVDELRQSSWTTSNLWGQGTQVTVSS", "Measurement label": "koff", "Unit spec": "s⁻¹", "Observed value": 0.00099}
{"Binder": "A4-083 (VHH) VHH: VQLQESGGGLVQTGGSLKLSCAASGSRFSLNTMGWYRQAPRKQREFVAAVTRGGNTNYGDFVKGRFTISRDNAKNTVYLQMNSLRPEDTAVYYCHVDELRESSWTTSNLWGQGTQVTVSS", "Measurement label": "koff", "Unit spec": "s⁻¹", "Observed value": 0.00657}
{"Binder": "A4-074 (VHH) VHH: VQLQESGGGLVQSGGSLRLSCAASGSMFSLNTMGWYRQAPGKQRELVATITRGGGTSYADSVKGRFTISRDNAKNTVYLQMNSLRPEDTAVYYCHVDELRQSSWTTSNLWGQGTQVTVSS", "Measurement label": "koff", "Unit spec": "s⁻¹", "Observed value": 0.00017}
{"Binder": "A4-085 (VHH) VHH: VQLQESGGGLVQPGGSLRLSCAASGSRFSLNTMGWYRQAPGKQREFVAAVTRGGNTNYGDFVKGRFTISRDNAKNTVYLQMNSLRPEDTAVYYCHVDELRESSWTTSNLWGQGTQVTVSS", "Measurement label": "koff", "Unit spec": "s⁻¹", "Observed value": 0.0005}
